# Test system: OVCAR-5
# TEST: NCI tumour cell line growth inhibition, 48 h
Calls of active or inactive are those of the source. Cut-off read from the data, not from the text of the source: active = GI50 up to about 1.1 µM and inactive = higher.
Answer with one of the outcomes true (1) (active), false (0) (inactive)

# COMPOUND, ASSIGNED CATEGORY
rows = [
    ("C=CC[C@@H]1C=C[C@@H](C(=O)OC)n2c(=O)n(-c3ccccc3)c(=O)n21", "false (0)"),
    ("C[C@@H]1O[C@@H](O[C@H]2CC[C@]3(C=O)[C@H]4CC[C@]5(C)[C@@H](C6=CC(=O)OC6)CC[C@]5(O)[C@@H]4CC[C@]3(O)C2)[C@H](O)[C@H](O)[C@H]1O", "true (1)"),
    ("CC(CCc1ccccc1)NCC(O)n1c(/N=N/N(C)C)nc2c1c(=O)n(C)c(=O)n2C (stereo not given)", "false (0)"),
    ("c1ccc2c(C3NCCc4nc[nH]c43)cccc2c1 (stereo not given)", "false (0)"),
]

Problem: Hello, I am checking results. What call was entered for CC12CCc3ccccc3C1=Nc1ccccc12 (stereo not given) ?
Solution: false (0)

----------
# Test system: OVCAR-4
# TEST: NCI tumour cell line growth inhibition, 48 h
Activity calls are given as the source filed them. Rule as the data show it: active = GI50 up to about 1.1 µM and inactive = higher. Where a SMILES comes first, the peptide text is derived from it. [ ]: non-standard residue; d: D form. The star is where a group is joined. ξ: configuration not given here. ξNMe2Val = CC(C)C(C(=O)*)N(C)C; NMeV = CN[CH](C(=O)O)C(C)C; NHBn = c1ccc(CN*)cc1
Each entry below lists one item and its recorded GI50 value.

The cases that follow already have their GI50 on record.
# MOLECULE, GI50
records = [
    ("COC(=O)[C@@]12C=CC(=O)[C@H]3C[C@@H](C(C(C)C)C1)[C@]32OC (stereo partly drawn)", "> 100 µM (inactive)"),
    ("[N-]=[N+]=Nc1ccc(S(=O)(=O)Oc2cc(OS(=O)(=O)c3ccc(N=[N+]=[N-])cc3)cc(OS(=O)(=O)c3ccc(N=[N+]=[N-])cc3)c2)cc1", "> 10 µM (inactive)"),
    ("CC(C)C(NC(=O)C(C(C)C)N(C)C)C(=O)N(C)C(C(=O)N1CCCC1C(=O)N1CCCC1C(=O)NCc1ccccc1)C(C)C (stereo not drawn) (ξNMe2Val-V[NMeV]PP-NHBn; configuration not given here)", "15.7 µM (inactive)"),
    ("C/C(=N\\[N+](C)(C)C)c1ccc(C)c(C)c1", "88.1 µM (inactive)"),
]

Field GI50 (entry COc1cc(Br)c(CC2C3=C(CCN2C(=O)C2CCC2)CC2(CC3)OCCO2)cc1O (stereo not drawn) ) reads 34.4 µM (inactive)

Field GI50 (entry COC(=O)[C@@H](Cc1ccccc1)N1O[C@]12CCCC[C@@H]2NC(=O)OC(C)(C)C (stereo partly drawn) ) reads 31.6 µM (inactive)

Field GI50 (entry CC(=O)NNC1=NN(C(C)=O)C2(S1)C(=O)Nc1ccc(Br)cc12 (stereo not drawn) ) reads 78.3 µM (inactive)

Field GI50 (entry COc1cc(Br)c(/C=N\c2cccc3ccc(OS(=O)(=O)c4cccc([N+](=O)[O-])c4)cc23)cc1OC ) reads 28.1 µM (inactive)

----------
# Test system: SK-MEL-2
# TEST: NCI tumour cell line growth inhibition, 48 h
Calls of active or inactive are those of the source. No stated cut-off is given here; in the data, active = GI50 up to about 1.1 µM and inactive = higher.
Answer with one of the outcomes true (active), false (inactive)

# COMPOUND, ASSIGNED CATEGORY
measured = [
    ("CC12CCc3ccccc3C1=Nc1ccccc12 (stereo unspecified)", "false"),
    ("COc1cc2c(c(OC)c1OC)-c1ccc(SC)c(=O)cc1[C@@H](NC(=O)c1ccc(Cl)cc1)CC2", "true"),
]

Could you now look at the following compound, please?
Problem: Hello, I am checking results. What call was entered for O=C(CCN1CCOCC1)Nc1ccc(F)cc1F ?
Solution: false

----------
# System: UO-31
# TEST: NCI tumour cell line growth inhibition, 48 h
Active and inactive are the calls of the source. No stated cut-off is given here; in the data, active = GI50 up to about 1.1 µM and inactive = higher.
Each entry below lists one item and its recorded GI50 value.

The cases that follow already have their GI50 on record.
# COMPOUND, SYSTEM UNDER TEST, GI50
data = [
    ("CC(C)(Oc1ccc(C(=O)c2ccc(Cl)cc2)cc1Cl)C(=O)N1CCN(c2ccccc2)CC1", "UO-31", "46.9 µM (inactive)"),
    ("COc1ccc2oc(=O)c(CC=C(C)C)c(O)c2c1C", "UO-31", "> 100 µM (inactive)"),
    ("Cc1ccc2c(c1)NC(=O)C(N=[N+]=[N-])(c1ccccc1)C2=O (configuration not stated)", "UO-31", "29 µM (inactive)"),
    ("Cc1ccc(N2C(=O)C(O)=C(C(=O)C(C)(C)C)C2c2ccc([N+](=O)[O-])cc2)cc1 (configuration not stated)", "UO-31", "29.6 µM (inactive)"),
    ("O=[N+]([O-])c1ccc(N2N=C(c3ccc(NCc4nc5ccccc5[nH]4)cc3)CC2c2ccco2)cc1 (configuration not stated)", "UO-31", "6.53 µM (inactive)"),
    ("CC(C)C(/N=C1\\CC2CCC1(C(=O)Nc1ccccc1O)C2(C)C)c1ccccc1 (configuration not stated)", "UO-31", "> 10 µM (inactive)"),
    ("CN(C)c1ccc(C2=C([O-])c3cc(-[n+]4ccccc4)ccc3C2=O)cc1", "UO-31", "> 100 µM (inactive)"),
    ("CC1=CC(C)C(C)N(CC2=NCCN2)c2ccccc21 (configuration not stated)", "UO-31", "47.3 µM (inactive)"),
    ("O=C1C(Cl)N(c2ccccc2[N+](=O)[O-])C1c1c[nH]c2ccccc12 (configuration not stated)", "UO-31", "54.6 µM (inactive)"),
    ("Cc1n(Cc2ccccc2)c2c([n+]1C)C(=O)c1ccccc1C2=O", "UO-31", "4.57 µM (inactive)"),
]

Field GI50 (entry CC1CC/C(=C\c2ccc(N(C)C)cc2)C2=C1C(c1ccc(N(C)C)cc1)NC(=S)N2 (configuration not stated) ) reads > 100 µM (inactive)

Field GI50 (entry CCOC(=O)Nc1sc2c(c1C#N)CC(C)CC2 (configuration not stated) ) reads 8.91 µM (inactive)

Field GI50 (entry Cc1ccc(-c2nc3cc([N+](=O)[O-])ccc3[nH]2)cc1 ) reads 57.8 µM (inactive)

Field GI50 (entry Cc1cc(=O)n2c3c(c4c(cc13)c(CN(C)C)cc(=O)n4C)OC2 ) reads 8.04 µM (inactive)

Field GI50 (entry COc1cc(C2c3cc4c(cc3OC(N3CCNCC3)C2C)OCO4)cc(OC)c1OC (configuration not stated) ) reads 1.69 µM (inactive)

Field GI50 (entry Clc1cc(OCC23CC4CC(CC(C4)C2)C3)nc(OCC23CC4CC(CC(C4)C2)C3)n1 ) reads > 100 µM (inactive)

Field GI50 (entry N#Cc1cc2c(cc1C#N)SCCSCCCSCCS2 ) reads > 53.3 µM (inactive)

----------
# System: SNB-19
# TEST: NCI tumour cell line growth inhibition, 48 h
Active and inactive are the calls of the source. Cut-off read from the data, not from the text of the source: active = GI50 up to about 1.1 µM and inactive = higher.
Answer with one of the outcomes TRUE (active), FALSE (inactive)

Use the examples below as a reference point.
# MOLECULE, ASSIGNED CATEGORY
records = [
    ("COc1cc2cc(C(=O)N3CC(CCl)c4ccc(O)cc43)[nH]c2c(OC)c1OC (centres undefined)", "TRUE"),
    ("Clc1ccc(-c2ccc(-c3nn4c(CNc5ccccc5)nnc4s3)o2)c(Cl)c1", "FALSE"),
]

Problem: Hello, I am checking results. What call was entered for Clc1ccc(C2NN=C3c4ccccc4OCC32)cc1 (centres undefined) ?
Solution: FALSE

Problem: Hello, I am checking results. What call was entered for COc1ccc2oc(=O)c(CC=C(C)C)c(O)c2c1C ?
Solution: FALSE

----------
# Tested on: IGROV-1
# TEST: NCI tumour cell line growth inhibition, 48 h
Active and inactive are the calls of the source. No stated cut-off is given here; in the data, active = GI50 up to about 1.1 µM and inactive = higher.
REPORTED METRIC: GI50

The cases that follow already have their GI50 on record.
# COMPOUND, SYSTEM UNDER TEST, GI50
data = [
    ("CC(N)C(=O)OCN1C(=O)C2C3C=CC(C2C1=O)C1C2C(=O)N(COC(=O)C(C)N)C(=O)C2C31 (stereo not given)", "IGROV-1", "33.8 µM (inactive)"),
    ("FC(F)(F)c1nc(-c2ccccc2)oc1Sc1nnc(Sc2oc(-c3ccccc3)nc2C(F)(F)F)s1", "IGROV-1", "24.2 µM (inactive)"),
    ("CC1NC(=O)C(C)C(c2ccccc2)N(N=O)C1c1ccccc1 (stereo not given)", "IGROV-1", "> 81.5 µM (inactive)"),
    ("N#Cc1nc(-c2cc([N+](=O)[O-])cc([N+](=O)[O-])c2)oc1N", "IGROV-1", "> 10 µM (inactive)"),
    ("O=C(NCCc1n[nH]c2c1C(=O)C=C(Nc1ccccc1)C2=O)OCc1ccccc1", "IGROV-1", "> 100 µM (inactive)"),
    ("COc1ccc(C2Oc3c(cccc3-c3c(-c4ccc(O)cc4)oc4cc(O)cc(O)c4c3=O)C(=O)C2O)cc1O (stereo not given)", "IGROV-1", "> 100 µM (inactive)"),
]

Field GI50 (entry C=C1C2CCCC1C1(S(C)(=O)=O)CCCCC21O (stereo not given) ) reads > 100 µM (inactive)

Field GI50 (entry CCN(CC)CCNc1ccc2nnn3c4ccc(O)cc4c(=O)c1c23 ) reads 4.01 µM (inactive)

Field GI50 (entry CNC(=O)Nc1ccccc1 ) reads > 100 µM (inactive)

Field GI50 (entry COc1ccc(OC)c2c(C(=O)O)c(C(C)c3ccccc3)ccc12 (stereo not given) ) reads > 100 µM (inactive)
